Every entry's value here was drawn from a melting point compilation (Tetko et al.; mined from patent text by program, amines drawn as free bases though some values may be those of a salt).

Measured property: melting point

[[record]]
compound = "CCC(=O)Nc1csc(Br)n1"
result = "122 to 125 °C"

[[record]]
compound = "CCCCNC(=O)NS(=O)(=O)c1c(C(=O)OCC)cnn1-c1ccc2ccccc2n1"
result = "140 to 142 °C"

[[record]]
compound = "O=C(CCCc1cccs1)N[C@H](Cc1ccc(C(F)(F)F)cc1)[C@@H](O)c1cccc2ccccc12 (racemic)"
result = "139 to 140 °C"


Task item: Look up melting point: ClC1=NC2CCCc3c(Cl)ccc(c32)N1 (configuration not stated)
Reply: 190 to 192 °C

Task item: Look up melting point: COC(=O)c1sc(C)c2ncn(Cc3ccc(-c4ccccc4-c4nnn[nH]4)cc3)c12
Reply: 188 to 189 °C

Task item: Look up melting point: CC1(C)CN(Cc2ccccc2[N+](=O)[O-])C(=O)S1
Reply: 128 to 129 °C

Task item: Look up melting point: O=C(Nc1ccc2[nH]c(=O)[nH]c2c1)C(=O)N1CCC(Cc2ccccc2)CC1
Reply: > 260 °C

====

Measured property: melting point

Known melting point results, listed for orientation:
[[record]]
compound = "CCN(C)c1cccc(Cl)c1COc1cccn2c(Br)c(C)nc12"
result = "124 to 126 °C"

[[record]]
compound = "CSc1cc(C(=O)c2cnoc2C2CC2)ccc1C"
result = "85.5 to 86.1 °C"

[[record]]
compound = "Cn1nc(Oc2ccc([N+](=O)[O-])c([N+](=O)[O-])c2)c(Cl)c1C(F)(F)F"
result = "139 to 140 °C"

[[record]]
compound = "Cc1ccc(-c2ccccc2C#N)cc1Br"
result = "104 to 106 °C"

[[record]]
compound = "CCCN(C(=O)Cl)C(=O)CCl"
result = "40 to 44 °C"


Task item: Look up melting point: CS(=O)(=O)c1ccc2ccc(C(=O)O)cc2c1
Reply: 273 to 274 °C

Task item: Look up melting point: Oc1cccc2c1c1ccccc1n2Cc1ccccc1
Reply: 119 to 122 °C

Task item: Look up melting point: CC(C)C1NS(=O)(=O)N(COC(=O)c2c(Cl)cccc2Cl)C1=O (stereo unspecified)
Reply: 151 to 152 °C

Task item: Look up melting point: CC(=O)Nc1ccc(/C=C/c2cc(/C=C/c3ccc4cc[nH]c4c3)[nH]n2)cc1
Reply: > 300 °C

Task item: Look up melting point: CCC(O)(CC)[C@H](Nc1nnc(-c2c(OS(=O)(=O)C(F)(F)F)ccc3ccccc23)c2ccccc12)c1ccccc1
Reply: 117 to 119 °C

Task item: Look up melting point: COC(=O)/C=C/c1cc(Br)cs1
Reply: 63 to 67 °C

Task item: Look up melting point: COc1cc(COc2ncccc2C#N)ccc1OCc1nc(-c2ccccc2)oc1C
Reply: 117 to 118 °C

Task item: Look up melting point: COc1ccc(-c2nnc(N3CCN(C)CC3)nc2-c2ccc(OC)cc2)cc1
Reply: 158 to 160 °C

====

melting point by entry:

Task item: Look up melting point: CN1C2=C(CSC2)C(=O)Nc2ccccc21
Reply: 196 to 198 °C

Task item: Look up melting point: O=C(Nc1ccc(C(F)(F)F)cc1)Nc1ccc(C(=O)N2CCOCC2)s1
Reply: 250 to 253 °C

Task item: Look up melting point: CCCC(=O)c1cc2nc(C(=O)OCC)n(C)c2cc1C
Reply: 106 to 108 °C

Task item: Look up melting point: COc1ccccc1-c1nn(C(C)C(=O)N(C)C)cc1Cl (stereo unspecified)
Reply: 74 to 77 °C

Task item: Look up melting point: CNC(=O)N1CCC(C(Nc2ccc(F)cc2)c2ccc(F)cc2)CC1 (stereo unspecified)
Reply: 86 to 90 °C

Task item: Look up melting point: COCOc1ccc(C2(c3cccc(-c4cccnc4F)c3)N=C(N)N3CCCN=C32)cc1 (stereo unspecified)
Reply: 95 to 105 °C

Task item: Look up melting point: NCCCc1csc(N=C2NCCCN2)n1
Reply: 116 °C

Task item: Look up melting point: OC1COC(c2ccc(Cl)cc2)OC1 (stereo unspecified)
Reply: 95 to 100 °C

Task item: Look up melting point: CCOC(=O)Cc1ccc2c(c1)C(=O)c1ccccc1CS2
Reply: 98 to 100 °C

Task item: Look up melting point: CNC(=O)c1c(I)c(C#N)c(I)c(C(=O)OCC(O)CO)c1I (stereo unspecified)
Reply: 117 to 120 °C

Task item: Look up melting point: N#Cc1c(OCC2CO2)cccc1[N+](=O)[O-] (stereo unspecified)
Reply: 131 to 135 °C
